experiment: Metabolic stability in mouse liver microsomes; type: in vitro ADME; conditions: liver microsomes
For each of the compounds below, state its half-life.
All answers are understood in h, so give the number only.

half-life for Nc1cccc2c1C(=O)N(C1CCC(=O)NC1=O)C2=O (stereo not drawn) [1c, pomalidomide] is 7.8

half-life for O=C1CCC(N2C(=O)c3ccccc3C2=O)C(=O)N1 (stereo not drawn) [1a, thalidomide] is 3.99

----------
experiment: Metabolic stability in human liver microsomes; format: in vitro ADME; settings: liver microsomes
For each of the compounds below, state its half-life.

half-life for Nc1cccc2c1C(=O)N(C1CCC(=O)NC1=O)C2=O (stereo not drawn) [1c, pomalidomide] is > 24 h

half-life for Nc1cccc2c1CN(C1CCC(=O)NC1=O)C2=O (stereo not drawn) [1b, lenalidomide] is > 24 h

half-life for O=C1CCC(N2C(=O)c3ccccc3C2=O)C(=O)N1 (stereo not drawn) [1a, thalidomide] is 4.55 h
